# Tested on: SK-OV-3 ovarian
# experiment_description: NCI-60 one-dose screen, 48 h (100 = growth as untreated, 0 = no growth, -100 = all killed)
# details: 10 µM unless noted
# Method: Growth inhibition of the SK-OV-3 human tumor cell line is measured as a screen for anti-cancer activity. Cells are grown in 96 well plates and exposed to the test compound for 48 hours. Compounds are tested at a single concentration, which is 10^-5 M for most compounds. The reported endpoint is percent growth (GI% or GIPRCNT), where numbers from 0 - 100% represent growth inhibition, and numbers from -100% - 0 represent cell death. For example, a value of 40 represents 60% growth inhibition. […]
Compounds without any hit were thinned out: in the full panel of roughly 83,000, 20% have a hit.
Measured growth, listed per entry.
measure_name: growth (%)

1) COc1ccc(-c2cc(-c3ccc(OC)cc3)c3sc(=O)[nH]c3n2)cc1 ... 92.8
2) COc1cccc(-c2nc3sccn3c2-c2ccnc(NCCN3CCCN(C)S3(=O)=O)n2)c1 ... 62.4
3) CCOC(=O)C1OC2(CCCC2)OC1C(=O)OCC (stereo not drawn) ... 105
4) CCCCCCCCCCCCC1CCC(=O)O1 (stereo not drawn) ... 102
5) COc1ccc(-c2nc(SCCC(C)C)nc(Nc3ccc(C(=O)O)cc3)c2C#N)cc1 ... 109
6) COc1cc(C2C(C#N)=C(N)Oc3cc4c(cc32)OCO4)cc2c1OCO2 (stereo not drawn) ... -5.36
7) COc1ccc(-c2cnnn2-c2nonc2-n2cccc2)cc1 ... -4.76
8) COc1cccc(-c2nc3sccn3c2-c2ccnc(NCCN3CCCNS3(=O)=O)n2)c1 ... 54.8
9) Cc1ccsc1C(=O)CC(=O)C(F)(F)C(F)(F)C(F)(F)F ... 103
10) COC(=O)CSc1ccc(Cl)cc1 ... 102
11) COC(=O)C(Br)(C(=O)OC)C(Br)C(Br)C(Br)c1ccccc1 (stereo not drawn) ... 102
12) N=c1nc(N2CCCCC2)cc(N)n1O ... 103
13) CS(=O)(=O)c1ccc(C(=O)N2N=C(c3ccccc3)CC2c2ccc3c(c2)OCO3)cc1 (stereo not drawn) ... 83.7
14) CCc1c(C)c2ccc(O)c(-c3cc(-c4ccccc4)c(C#N)c(=O)[nH]3)c2oc1=O ... 95.9
15) Cc1ccncc1NC=O ... 110
16) COc1ccc(/C=C(\C#N)c2cc(OC)c(OC)c(OC)c2)cc1 ... -6.74
17) CNC(=O)c1c(NC(=O)c2cccc(C(F)(F)F)c2)sc2c1CCC(=O)C2 ... -5.12
18) Cn1c(-c2ccccc2)cc(=O)n1-c1ccccc1 ... 110
19) Cc1ccc(NC(=O)c2sc3nc4c(cc3c2N)C(=O)CCC4)cc1Cl ... 114
20) N=C(N)c1ccc(-c2ccc(-c3cccs3)s2)cc1F ... -100
21) NC(N)=N/N=C/c1ccc(Cl)cc1 ... 76.5
22) CCn1c(=O)c(C(=O)NCCCO)c(O)c2ccccc21 ... 115
23) C=C[C@H]1CCC/C=C/[C@@H]2C[C@H](O)C[C@H]2[C@H](O)/C=C/C(=O)O1 ... 26.3
